# EXPERIMENTAL_DETAILS: Pharmacokinetics in cynomolgus monkeys after IV and PO administration
# Assay type: in vivo
# CONDITIONS_USED: PO, 10 mg/kg, listed as Compound 1b (crystal form C), 10 mg/kg, read-out: Peak concentration Cmax
OBSERVABLE: Cmax (µM)
# output: bare number, implied unit µM

Summary for this molecule, O=C(O)CSc1nnc(Br)n1-c1c(Cl)cc(C2CC2)c2ccccc12 (single isomer, unassigned) [Compound 1b] : Cmax is 13.2

* * *

# EXPERIMENTAL_DETAILS: Pharmacokinetics in cynomolgus monkeys after IV and PO administration
# Format: in vivo
# CONDITIONS_USED: male, cynomolgus monkey, plasma, po, 10 mg/kg, PO, 10 mg/kg, read-out: Bioavailability F
OBSERVABLE: bioavailability

Summary for this compound, O=C(O)CSc1nnc(Br)n1-c1c(Cl)cc(C2CC2)c2ccccc12 [Compound 1] : bioavailability is 131%

* * *

# EXPERIMENTAL_DETAILS: Pharmacokinetics in cynomolgus monkeys after IV and PO administration
# Type: in vivo
# CONDITIONS_USED: male, cynomolgus monkey, plasma, po, 10 mg/kg, PO, 10 mg/kg, read-out: Peak concentration Cmax
OBSERVABLE: Cmax (µM)
# output: bare number, implied unit µM

Summary for this compound, O=C(O)CSc1nnc(Br)n1-c1ccc(C2CC2)c2ccccc12 (racemic) [(±)-Lesinurad, lesinurad, reference compound] : Cmax is 37.2

Summary for this compound, O=C(O)CSc1nnc(Br)n1-c1c(Cl)cc(C2CC2)c2ccccc12 [Compound 1] : Cmax is 46.1

Summary for this compound, O=C(O)CSc1nnc(Br)n1-c1c(Cl)cc(C2CC2)c2ccccc12 (single isomer, unassigned) [Compound 1a] : Cmax is 22.6

* * *

# ASSAY_SYSTEM: URAT-1 (Homo sapiens)
# Sequence (Q96S37 whole entry): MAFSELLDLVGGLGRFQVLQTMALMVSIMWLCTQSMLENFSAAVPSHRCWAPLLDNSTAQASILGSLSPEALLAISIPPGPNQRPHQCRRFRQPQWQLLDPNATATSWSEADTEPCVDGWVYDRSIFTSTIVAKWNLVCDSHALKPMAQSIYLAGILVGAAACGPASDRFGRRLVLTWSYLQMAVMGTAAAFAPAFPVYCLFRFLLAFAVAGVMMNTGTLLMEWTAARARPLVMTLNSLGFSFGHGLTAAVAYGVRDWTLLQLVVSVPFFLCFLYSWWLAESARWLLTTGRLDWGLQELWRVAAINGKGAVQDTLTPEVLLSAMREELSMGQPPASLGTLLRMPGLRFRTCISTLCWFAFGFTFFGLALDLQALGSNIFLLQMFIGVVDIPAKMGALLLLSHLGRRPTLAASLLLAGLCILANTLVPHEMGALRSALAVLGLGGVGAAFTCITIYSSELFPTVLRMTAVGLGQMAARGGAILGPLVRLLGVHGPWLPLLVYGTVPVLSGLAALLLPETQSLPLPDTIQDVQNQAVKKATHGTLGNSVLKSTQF
# EXPERIMENTAL_DETAILS: Inhibition of 14C-uric acid uptake in MDCK cells stably transfected with URAT-1 gene
# CONDITIONS_USED: MDCK cells stably transfected with URAT-1, substrate 14C-uric acid 50 μM; read-out: IC50 of the inhibitory effect on URAT-1
OBSERVABLE: IC50 (µM)
# output: bare number, implied unit µM

Summary for this compound, O=C(O)CSc1nnc(Br)n1-c1c(Cl)cc(C2CC2)c2ccccc12 [Compound 1] : IC50 is 10.4

* * *

# ASSAY_SYSTEM: OAT-4 (Homo sapiens, UniProt Q9NSA0)
# Construct: expressed in transfected cells; host or cells: MDCK (canine kidney) cells; the empty-vector control is pcDNA3.1
# Sequence (Q9NSA0 whole entry): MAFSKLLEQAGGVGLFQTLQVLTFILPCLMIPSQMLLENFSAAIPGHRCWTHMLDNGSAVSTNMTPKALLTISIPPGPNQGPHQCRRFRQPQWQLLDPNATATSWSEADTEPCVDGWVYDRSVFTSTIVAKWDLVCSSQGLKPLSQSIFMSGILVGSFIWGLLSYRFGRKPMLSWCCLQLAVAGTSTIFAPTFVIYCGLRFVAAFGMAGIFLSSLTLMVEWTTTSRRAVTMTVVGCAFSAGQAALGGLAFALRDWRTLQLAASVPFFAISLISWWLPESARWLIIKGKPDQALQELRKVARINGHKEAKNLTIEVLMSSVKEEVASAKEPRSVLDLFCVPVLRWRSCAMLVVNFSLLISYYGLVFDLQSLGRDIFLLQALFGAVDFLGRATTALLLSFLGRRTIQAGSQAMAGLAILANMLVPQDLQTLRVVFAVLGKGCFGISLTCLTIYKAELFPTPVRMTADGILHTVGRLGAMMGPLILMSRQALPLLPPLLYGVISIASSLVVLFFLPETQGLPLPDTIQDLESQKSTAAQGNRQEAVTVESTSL
# EXPERIMENTAL_DETAILS: Inhibition of substrate uptake in MDCK cells overexpressing OAT-4
# Type: cell-based
# CONDITIONS_USED: MDCK-OAT4 cells, substrate 3H-estrone ammonium sulfate; read-out: IC50 of the inhibition on OAT-4 transporting 3H-ES (3H-estrone ammonium sulfate)
OBSERVABLE: IC50

Summary for this compound, O=C(O)CSc1nnc(Br)n1-c1c(Cl)cc(C2CC2)c2ccccc12 : IC50 is 17.1 µM

* * *

Please provide measured MRT inf for the entries that follow.
# EXPERIMENTAL_DETAILS: Pharmacokinetics in cynomolgus monkeys after IV and PO administration
# Type: in vivo
# CONDITIONS_USED: male, cynomolgus monkey, plasma, po, 10 mg/kg, PO, 10 mg/kg, read-out: Residence time MRT0-inf
# output: bare number, implied unit h

Summary for this compound, O=C(O)CSc1nnc(Br)n1-c1c(Cl)cc(C2CC2)c2ccccc12 [Compound 1] : MRT inf is 3.76

Summary for this compound, O=C(O)CSc1nnc(Br)n1-c1c(Cl)cc(C2CC2)c2ccccc12 (single isomer, unassigned) [Compound 1a] : MRT inf is 4.65

Summary for this compound, O=C(O)CSc1nnc(Br)n1-c1ccc(C2CC2)c2ccccc12 (racemic) [(±)-Lesinurad, lesinurad, reference compound] : MRT inf is 3.44
